- Test system: Setaria faberi (SETFA)
- experimental_protocol: Pre-emergence Test, Setaria faberi (SETFA)
- Assay type: in vivo
- settings: 1000 g/ha, evaluated after 13 days
Pre-emergence Test SETFA, percentage damage caused to the plant (five-point scale): recorded values

CCn1c(Cn2nccn2)cc(=O)c(C(=O)O)c1-c1ccc(Cl)c(Cl)c1 [Compound 48]    5 (5=81-100%)
CCn1c(Cn2ccc(C(F)(F)F)n2)cc(=O)c(C(=O)O)c1-c1ccc(Cl)c(F)c1 [Compound 30]    5 (5=81-100%)
COCCn1c(Cn2ccc(C(F)(F)F)n2)cc(=O)c(C(=O)O)c1-c1ccc(Cl)c(Cl)c1 [Compound 170]    4 (4=61-80%)

Let us move to another entry and its Pre-emergence Test SETFA, percentage damage caused to the plant (five-point scale).
stdin: Field request: Pre-emergence Test SETFA, percentage damage caused to the plant (five-point scale) | item: CCn1c(Cn2cc(C(C)=O)c(C)n2)cc(=O)c(C(=O)O)c1-c1ccc(Cl)c(Cl)c1 [Compound 100]
stdout: 1 (1=0-20%)
